Where do the numbers come from? From BindingDB's records for doi:10.1021/jm061299k.

# assayed-target: Peroxisome proliferator-activated receptor gamma (Mus musculus) (UniProt P37238)
# experiment-description: PPARgamma activity was assessed by the cell-based insulin receptor binding assay (IRBA) in mouse 3T3-L1 cells, measuring the increase in the number of insulin receptors
pEC50: −log10 of the molar value.
endpoint: pEC50

Worked cases, answers included:
CCCc1c(OCCCOc2ccc3c(c2)CC[C@H]3CC(=O)O)ccc2c1ccn2C :: < 5.00
Cc1ccc(OCCCOc2ccc3c(c2)CC[C@H]3CC(=O)O)cc1C :: < 5.00
CCCc1cc(-c2nc(C)c(C(=O)N(C)C)s2)ccc1OCCCOc1ccc2c(c1)CC[C@H]2CC(=O)O :: 7.70
COc1cc(-c2nc(C)c(C(=O)N(C)C)s2)ccc1OCCCOc1ccc2c(c1)CC[C@H]2CC(=O)O :: 6.51
O=C(O)C[C@@H]1CCc2cc(OCCCOc3ccc4cc[nH]c4c3)ccc21 :: < 5.00
O=C(O)C[C@@H]1CCc2cc(OCCCOc3ccc4cnoc4c3)ccc21 :: < 5.00

query: So what's the measured pEC50 for this one? O=C(O)C[C@@H]1CCc2cc(OCCCOc3ccc4ncoc4c3)ccc21
result: < 5.00

query: What about O=C(O)C[C@@H]1CCc2cc(OCCCOc3ccccc3)ccc21 ?
result: < 5.00

###

# assayed-target: Peroxisome proliferator-activated receptor alpha (Homo sapiens)
# Sequence (Q07869 whole entry): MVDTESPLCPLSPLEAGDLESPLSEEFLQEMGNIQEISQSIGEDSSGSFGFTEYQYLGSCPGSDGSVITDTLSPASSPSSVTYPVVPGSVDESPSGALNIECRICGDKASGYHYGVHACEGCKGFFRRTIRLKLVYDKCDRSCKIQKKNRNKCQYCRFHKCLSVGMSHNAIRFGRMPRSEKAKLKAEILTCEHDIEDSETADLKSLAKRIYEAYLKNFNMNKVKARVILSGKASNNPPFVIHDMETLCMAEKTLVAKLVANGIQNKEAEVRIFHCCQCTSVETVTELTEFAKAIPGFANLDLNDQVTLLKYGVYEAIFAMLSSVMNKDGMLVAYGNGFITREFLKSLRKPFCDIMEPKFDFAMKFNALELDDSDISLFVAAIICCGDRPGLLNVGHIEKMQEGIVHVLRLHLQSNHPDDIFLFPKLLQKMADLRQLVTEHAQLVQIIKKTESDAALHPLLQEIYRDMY
# experiment-description: PPAR FRET Assay
# assay-context: 25 °C
endpoint: EC50 (nM)
// units = nM; emit number, no label

query: Reported EC50 for CCCc1cc(-c2nc3c(s2)CCCO3)ccc1OCCCOc1ccc2c(c1)CC[C@H]2CC(=O)O : what is it?
result: 101

###

# assayed-target: Peroxisome proliferator-activated receptor delta (Homo sapiens, UniProt Q03181)
# Sequence (Q03181 whole entry): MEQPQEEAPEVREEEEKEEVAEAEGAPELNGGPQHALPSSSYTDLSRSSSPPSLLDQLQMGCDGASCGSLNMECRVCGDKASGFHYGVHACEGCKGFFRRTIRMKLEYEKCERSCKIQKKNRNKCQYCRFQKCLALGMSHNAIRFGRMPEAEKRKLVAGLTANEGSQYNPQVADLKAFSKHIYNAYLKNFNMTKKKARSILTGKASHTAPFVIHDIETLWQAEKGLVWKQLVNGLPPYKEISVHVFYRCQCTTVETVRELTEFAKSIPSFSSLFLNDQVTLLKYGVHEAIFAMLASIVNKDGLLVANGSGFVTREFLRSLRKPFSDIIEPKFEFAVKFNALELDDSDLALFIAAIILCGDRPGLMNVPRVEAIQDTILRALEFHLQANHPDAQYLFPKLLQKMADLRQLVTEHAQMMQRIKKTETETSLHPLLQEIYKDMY
# experiment-description: PPAR FRET Assay
# assay-context: 25 °C
endpoint: EC50 (nM)
The figure you give is taken to be in nM; do not add the unit.

query: Identify the measured EC50 of CCCc1cc(-c2nc3c(s2)CCCO3)ccc1OCCCOc1ccc2c(c1)CC[C@H]2CC(=O)O for Peroxisome proliferator-activated receptor delta (Homo sapiens, UniProt Q03181).
result: 4
